# MEASUREMENT_TARGET: BTK (Homo sapiens (Human), UniProt Q06187)
# Sequence (Q06187 whole entry): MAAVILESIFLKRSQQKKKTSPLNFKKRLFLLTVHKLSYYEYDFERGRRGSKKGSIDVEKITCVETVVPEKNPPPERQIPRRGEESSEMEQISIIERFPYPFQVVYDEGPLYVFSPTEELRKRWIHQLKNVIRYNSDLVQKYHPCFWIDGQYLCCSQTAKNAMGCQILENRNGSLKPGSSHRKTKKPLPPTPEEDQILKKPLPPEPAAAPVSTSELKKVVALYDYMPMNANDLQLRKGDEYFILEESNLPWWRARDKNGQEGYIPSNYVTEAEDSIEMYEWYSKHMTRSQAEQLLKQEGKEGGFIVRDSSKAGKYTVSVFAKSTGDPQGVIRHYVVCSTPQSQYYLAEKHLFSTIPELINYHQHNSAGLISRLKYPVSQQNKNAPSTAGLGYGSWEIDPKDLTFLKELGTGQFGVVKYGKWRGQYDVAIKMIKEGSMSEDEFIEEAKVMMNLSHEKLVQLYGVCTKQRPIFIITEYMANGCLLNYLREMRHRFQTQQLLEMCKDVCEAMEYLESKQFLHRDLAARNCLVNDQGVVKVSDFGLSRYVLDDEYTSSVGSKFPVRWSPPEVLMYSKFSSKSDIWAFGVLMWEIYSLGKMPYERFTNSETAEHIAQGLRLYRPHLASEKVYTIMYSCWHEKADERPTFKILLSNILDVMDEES
# PROTOCOL_DETAILS: BTK degradation in OCI-LY10 cells (Total-BTK HTRF kit)
# Type: cell-based
# CONDITION_DESCRIPTION: OCI-LY10 cells, 24 (or 6) h incubation; maximum degradation rate
METRIC: BTK degradation in OCI-LY10 cells Dmax

Query :: Sample NC(=O)c1ncc(N2CCCCC2)nc1Nc1ccc(C2CCN(C[C@H]3C[C@@H](n4ccc5c6c(C7CCC(=O)NC7=O)noc6ccc54)C3)CC2)cc1 (stereo partly drawn) — what was its BTK degradation in OCI-LY10 cells Dmax?
Result :: >90%

Query :: Value lookup for BTK degradation in OCI-LY10 cells Dmax; key = NC(=O)c1ncc(N2CCCCC2)nc1Nc1ccc(C2CCN([C@H]3CC[C@H](n4ccc5c6c(C7CCC(=O)NC7=O)noc6ccc54)CC3)CC2)cc1 (stereo partly drawn)
Result :: >90%

Query :: What value of BTK degradation in OCI-LY10 cells Dmax has been recorded for this entry: CN1CCN([C@@H]2CCCN(c3cnc(C(N)=O)c(Nc4ccc(C5CCN(C[C@@H]6CCC(c7cc8onc(C9CCC(=O)NC9=O)c8c8cc[nH]c78)C6)CC5)cc4)n3)C2)C1=O (stereo partly drawn)
Result :: 100%

----------
# Test system: TMD8-BTK(C481S) cells
# PROTOCOL_DETAILS: Inhibitory activity on TMD8-BTK(C481S) cell proliferation (CCK-8)
# Format: cell-based
# CONDITION_DESCRIPTION: 72 h, 72 h incubation
Catalogue of IC50 readings, one per entry.
Report the value in µM with no unit label.

Some entries whose results are on file:
| COMPOUND | MEASUREMENT_TARGET | METRIC | UNIT_ABBREV | MEASUREMENT |
| --- | --- | --- | --- | --- |
| CN1CCN([C@@H]2CCCN(c3cnc(C(N)=O)c(Nc4ccc(C5CCC6(CC5)CC(N5CCc7ccc8c(C9CCC(=O)NC9=O)noc8c7CC5)C6)cc4)n3)C2)C1=O (some centres unmarked) | TMD8-BTK(C481S) cells | IC50 | µM | 0.012 |
| CN1CCN([C@@H]2CCCN(c3cnc(C(N)=O)c(Nc4ccc(C5CCN(C[C@H]6CCC(c7ccc8c(C9CCC(=O)NC9=O)noc8c7)C6)CC5)cc4)n3)C2)C1=O (some centres unmarked) | TMD8-BTK(C481S) cells | IC50 | µM | 0.027 |
| NC(=O)c1ncc(N2CCCCC2)nc1Nc1ccc(N2CCC(CN3CCc4ccc5c(C6CCC(=O)NC6=O)noc5c4CC3)CC2)cc1 (centres unmarked) | TMD8-BTK(C481S) cells | IC50 | µM | 0.0026 |
| CN1CCN([C@@H]2CCCN(c3cnc(C(N)=O)c(Nc4ccc(C5CCN(C6CN(c7ccc8c(C9CCC(=O)NC9=O)noc8c7)C6)CC5)cc4)n3)C2)C1=O (some centres unmarked) | TMD8-BTK(C481S) cells | IC50 | µM | 0.0024 |

Moving on to another compound below.
Query :: Endpoint output: IC50 of CN1CCN([C@@H]2CCCN(c3cnc(C(N)=O)c(Nc4ccc(C5CCC6(CC5)CN(CC5CN(c7ccc8c(C9CCC(=O)NC9=O)noc8c7)C5)C6)cc4)n3)C2)C1=O (some centres unmarked) . Value?
Result :: 0.014

----------
# System: TMD8-BTK(C481S) cells
# PROTOCOL_DETAILS: Inhibitory activity on TMD8-BTK(C481S) cell proliferation (CCK-8)
# Type: cell-based
# CONDITION_DESCRIPTION: 72 h, 72 h incubation
METRIC: IC50 (nM)
Just the number in nM, nothing appended.

Query :: Given the compound CN1CCN([C@@H]2CCCN(c3cnc(C(N)=O)c(Nc4ccc5c(c4)CCC4(CCN(CC6Cc7ccc8c(C9CCC(=O)NC9=O)noc8c7C6)CC4)O5)n3)C2)C1=O (stereo partly drawn) [Compound 77] , what is its reported IC50?
Result :: 23

Query :: Entry CN1CCN([C@@H]2CCCN(c3cnc(C(N)=O)c(Nc4ccc(C5CCN(CC6CCN(c7ccc8c(C9CCC(=O)NC9=O)noc8c7)CC6)CC5)cc4)n3)C2)C1=O (stereo partly drawn) [Compound 8] : reported IC50 = ?
Result :: 6.9

Query :: Record request: IC50 value, item CN1CCN([C@@H]2CCCN(c3cnc(C(N)=O)c(Nc4ccc(C5CC6CCCC(C5)N6CC5Cc6ccc7c(C8CCC(=O)NC8=O)noc7c6C5)cc4)n3)C2)C1=O (stereo partly drawn) [Compound 81]
Result :: 11

----------
# PROTOCOL_DETAILS: Mouse pharmacokinetics
# Type: in vivo, ICR mice
# CONDITION_DESCRIPTION: ICR, mouse, plasma, iv, 1 mg/kg, Mouse i.v. 1 mpk
METRIC: half-life (h)

Illustrative cases are given below, each with its answer.
| COMPOUND | UNIT_ABBREV | half-life |
| --- | --- | --- |
| CN1CCN([C@@H]2CCCN(c3cnc(C(N)=O)c(Nc4ccc(C5CCN(CC6Cc7ccc8c(C9CCC(=O)NC9=O)noc8c7C6)CC5)cc4)n3)C2)C1=O (stereo partly drawn) | h | 2.8 |
| CN1CCN([C@@H]2CCCN(c3cnc(C(N)=O)c(Nc4ccc(C5CCN(C6CN(c7ccc8c(C9CCC(=O)NC9=O)noc8c7)C6)CC5)cc4)n3)C2)C1=O (stereo partly drawn) | h | 1.6 |
| CN1CCN([C@@H]2CCCN(c3cnc(C(N)=O)c(Nc4ccc(C5CCN(CC6CN(c7ccc8c(C9CCC(=O)NC9=O)noc8c7)C6)CC5)cc4)n3)C2)C1=O (stereo partly drawn) | h | 1.5 |
| NC(=O)c1ncc(N2CCCCC2)nc1Nc1ccc(C2CCN(C3Cc4ccc5c(C6CCC(=O)NC6=O)noc5c4C3)CC2)cc1 (stereo not drawn) | h | 2.6 |

(1) NC(=O)c1ncc(N2CCCCC2)nc1Nc1ccc(N2CCC(CN3CCc4ccc5c(C6CCC(=O)NC6=O)noc5c4CC3)CC2)cc1 (stereo not drawn)
(2) CN1CCN([C@@H]2CCCN(c3cnc(C(N)=O)c(Nc4ccc(N5CCC(CN6CCc7ccc8c(C9CCC(=O)NC9=O)noc8c7CC6)CC5)cc4)n3)C2)C1=O (stereo partly drawn)
Query :: Please indicate which entry, 1 or 2 , has the lower recorded half-life value. Label of pick, please.
Result :: 2

----------
Reported pIC50 values for a set of compounds
# Test system: TMD8-BTK(C481S) cells
# PROTOCOL_DETAILS: Inhibitory activity on TMD8-BTK(C481S) cell proliferation (CCK-8)
# Assay type: cell-based
# CONDITION_DESCRIPTION: 72 h, 72 h incubation
Reminder that pIC50 is minus the log10 of a molar concentration.

| COMPOUND | MEASUREMENT |
| --- | --- |
| CN1CCN([C@@H]2CCCN(c3cnc(C(N)=O)c(Nc4ccc(C5CCN(C[C@H]6CCN(c7ccc8c(C9CCC(=O)NC9=O)noc8c7)C6)CC5)cc4)n3)C2)C1=O (some centres unmarked) | 7.46 |
| CN1CCN([C@@H]2CCCN(c3cnc(C(N)=O)c(Nc4ccc(C5CCC6(CC5)CN(CC5Cc7ccc8c(C9CCC(=O)NC9=O)noc8c7C5)C6)cc4)n3)C2)C1=O (some centres unmarked) | 8.43 |
| NC(=O)c1ncc(N2CCCCC2)nc1Nc1ccc(N2CCC(N3CCc4c(ccc5c(C6CCC(=O)NC6=O)noc45)C3)CC2)cc1 (centres unmarked) | 7.89 |
| NC(=O)c1ncc(N2CCCCC2)nc1Nc1ccc(N2CCC(N3CCc4ccc5c(C6CCC(=O)NC6=O)noc5c4C3)CC2)cc1 (centres unmarked) | 8.03 |
| CN1CCN([C@@H]2CCCN(c3cnc(C(N)=O)c(Nc4ccc(C5CCC6(CC5)CCN(CC5Cc7ccc8c(C9CCC(=O)NC9=O)noc8c7C5)CC6)cc4)n3)C2)C1=O (some centres unmarked) | 8.40 |

Query :: Tell me the measured pIC50 of NC(=O)c1ncc(N2CCCCC2)nc1Nc1ccc(N2CCC(N3CCc4ccc5c(C6CCC(=O)NC6=O)noc5c4CC3)CC2)cc1 (centres unmarked) , please.
Result :: 8.09

Query :: Please look up its pIC50: CN1CCN([C@@H]2CCCN(c3cnc(C(N)=O)c(Nc4ccc(C5CCN(CC6CN(c7ccc8c(C9CCC(=O)NC9=O)noc8c7)C6)CC5)cc4)n3)C2)C1=O (some centres unmarked)
Result :: 8.92

Query :: Bench note: what pIC50 did CN1CCN([C@@H]2CCCN(c3cnc(C(N)=O)c(Nc4ccc(C5CCC6(CC5)CC(N5Cc7ccc8c(C9CCC(=O)NC9=O)noc8c7C5)C6)cc4)n3)C2)C1=O (some centres unmarked) show?
Result :: 7.48

Query :: If you can, please state the reported pIC50 value of CN1CCN([C@@H]2CCCN(c3cnc(C(N)=O)c(Nc4ccc(C5CCN([C@H]6C[C@@H](n7ccc8c9c(C%10CCC(=O)NC%10=O)noc9ccc87)C6)CC5)cc4)n3)C2)C1=O (some centres unmarked) .
Result :: 9.24

Query :: Give the measured pIC50 of NC(=O)c1ncc(N2CCCCC2)nc1Nc1ccc(C2CCN(C[C@@H]3CC[C@H](n4ccc5c6c(C7CCC(=O)NC7=O)noc6ccc54)C3)CC2)cc1 (some centres unmarked) .
Result :: 8.16

Query :: Which value of pIC50 has been reported for CN1CCN([C@@H]2CCCN(c3cnc(C(N)=O)c(Nc4ccc(C5C[C@@H]6CN(CC7Cc8ccc9c(C%10CCC(=O)NC%10=O)noc9c8C7)C[C@@H]6C5)cc4)n3)C2)C1=O (some centres unmarked) in the records?
Result :: 8.24
